- assay-summary: Total systemic clearance in castrated cynomolgus monkey at 10 mg/kg, iv by LC-MS/MS analysis
- Format: ADME, organism-based, Macaca fascicularis
- Design: dose 10 mg/kg, route intravenous
- measurement-parameters: male, in vivo

- entry-smiles: "Cc1nc(-c2nnc3n2CCN(C(=O)c2ccc(-c4cccs4)cc2)[C@@H]3C)cs1"
  clearance / L/h/kg: 0.99

----------
- assay-summary: in vivo
- measurement-parameters: Sprague-Dawley, rat, iv, 1 mg/kg
- Description: Volume of distribution at steady state in Sprague-Dawley rat at 1 mg/kg, iv by LC-MS/MS analysis
Label key: true (1) means Vd under 3 L/kg; false (0) means Vd of 3 L/kg or more.

- molecule: "CC[C@H](NC(=O)c1c(O)c(-c2ccccc2)nc2ccccc12)c1ccccc1 [TALNETANT]"
  label-value: "true (1)"
- molecule: "Cc1nc(-c2nnc3n2CCN(C(=O)c2ccc(-c4cccs4)cc2)[C@@H]3C)cs1"
  label-value: "true (1)"
- molecule: "C[C@@H]1c2nnc(-c3csc(-c4ccc(F)cc4F)n3)n2CCN1C(=O)c1ccc(-c2cccs2)cc1"
  label-value: "false (0)"
- molecule: "Cc1noc(-c2nnc3n2CCN(C(=O)c2ccc(-c4cccs4)cc2)[C@@H]3C)n1"
  label-value: "true (1)"
- molecule: "CC(C)c1nc(-c2nnc3n2CCN(C(=O)c2ccc(-c4cccs4)cc2)[C@@H]3C)co1"
  label-value: "true (1)"

----------
- assay-summary: Solubility of the compound in PBS buffer at pH 7.4 by shake-flask method
- Format: physicochemical

- entry-smiles: "Cc1cncc(-c2nnc3n2CCN(C(=O)c2ccc(-c4cccs4)cc2)[C@@H]3C)n1"
  solubility thermodynamic: "160 µM"
- entry-smiles: "Cc1nc(-c2nnc3n2CCN(C(=O)c2ccc(F)cc2)[C@@H]3C)cs1"
  solubility thermodynamic: "≥ 200 µM"
- entry-smiles: "C[C@@H]1c2nnc(-c3ccccn3)n2CCN1C(=O)c1ccc(F)cc1"
  solubility thermodynamic: "≥ 200 µM"
- entry-smiles: "COc1cccc(C(=O)N2CCn3c(nnc3-c3ccccn3)C2)c1"
  solubility thermodynamic: "196 µM"
- entry-smiles: "C[C@H]1c2nnc(-c3ccccn3)n2CCN1C(=O)c1ccc(F)cc1"
  solubility thermodynamic: "≥ 200 µM"

----------
Recorded fCmax by entry
- Test system: Rattus norvegicus
- assay-summary: Unbound Cmax in Sprague-Dawley rat at 3 mg/kg, po by LC-MS/MS analysis
- Assay type: ADME, organism-based
- Set-up: dose 3 mg/kg, route oral
- measurement-parameters: in vivo
assay-metric: fCmax

- molecule: "CC[C@H](NC(=O)c1c(O)c(-c2ccccc2)nc2ccccc12)c1ccccc1 [TALNETANT]"
  value-observed: "2.65 nM"
- molecule: "Cc1nc(-c2nnc3n2CCN(C(=O)c2ccc(-c4cccs4)cc2)[C@@H]3C)cs1"
  value-observed: "443 nM"
- molecule: "CC(=O)N(C)C1(c2ccccc2)CCN(CCC[C@]2(c3ccc(Cl)c(Cl)c3)CCCN(C(=O)c3ccccc3)C2)CC1 [OSANETANT]"
  value-observed: "0.42 nM"
- molecule: "Cc1noc(-c2nnc3n2CCN(C(=O)c2ccc(-c4cccs4)cc2)[C@@H]3C)n1"
  value-observed: "272 nM"
- molecule: "CC(C)c1nc(-c2nnc3n2CCN(C(=O)c2ccc(-c4cccs4)cc2)[C@@H]3C)co1"
  value-observed: "58.7 nM"
- molecule: "C[C@@H]1c2nnc(-c3csc(-c4ccc(F)cc4F)n3)n2CCN1C(=O)c1ccc(-c2cccs2)cc1"
  value-observed: "0.14 nM"

----------
Each item that follows carries a reported half-life.
- assay-summary: in vivo
- measurement-parameters: Sprague-Dawley, rat, iv, 1 mg/kg
assay-metric: half-life (min)

- entry-smiles: "CC[C@H](NC(=O)c1c(O)c(-c2ccccc2)nc2ccccc12)c1ccccc1"
  value-observed: 448
- entry-smiles: "CC(=O)N(C)C1(c2ccccc2)CCN(CCC[C@]2(c3ccc(Cl)c(Cl)c3)CCCN(C(=O)c3ccccc3)C2)CC1"
  value-observed: 121
- entry-smiles: "Cc1noc(-c2nnc3n2CCN(C(=O)c2ccc(-c4cccs4)cc2)[C@@H]3C)n1"
  value-observed: 62
- entry-smiles: "CC(C)c1nc(-c2nnc3n2CCN(C(=O)c2ccc(-c4cccs4)cc2)[C@@H]3C)co1"
  value-observed: 210
- entry-smiles: "C[C@@H]1c2nnc(-c3csc(-c4ccc(F)cc4F)n3)n2CCN1C(=O)c1ccc(-c2cccs2)cc1"
  value-observed: 321

----------
Recorded logD for the following molecules
- assay-summary: Lipophilicity, log D of the compound at pH 7.4
- Type: physicochemical
- measurement-parameters: buffer, read-out: logD

- molecule: "CC(C)c1nc(-c2nnc3n2CCN(C(=O)c2ccc(-c4cccs4)cc2)[C@@H]3C)co1"
  logD: 3.3
- molecule: "C[C@@H]1c2nnc(-c3csc(-c4ccccc4)n3)n2CCN1C(=O)c1ccc(F)cc1"
  logD: 3.4
- molecule: "CC(C)c1nc(-c2nnc3n2CCN(C(=O)c2ccc(-c4cccs4)cc2)[C@@H]3C)cs1"
  logD: 4.4
- molecule: "Cc1nc(-c2nnc3n2CCN(C(=O)c2ccc(-c4cccs4)cc2)[C@H]3C)cs1"
  logD: 3.1
- molecule: "O=C(c1ccc(F)cc1)N1CCn2c(nnc2-c2ccccn2)C1"
  logD: 1.1
- molecule: "N#CC(c1ccccn1)c1ccnc(N2CCN(C(=O)c3ccc(F)cc3)CC2)n1 (stereo not drawn)"
  logD: 3.4
- molecule: "Cc1cccc(-c2nnc3n2CCN(C(=O)c2ccc(F)cc2)C3)n1"
  logD: 1.4
- molecule: "Cc1cncc(-c2nnc3n2CCN(C(=O)c2ccc(-c4cccs4)cc2)[C@@H]3C)n1"
  logD: 2.7

----------
- assayed-target: UniProt P33261
- Sequence (P33261 whole entry): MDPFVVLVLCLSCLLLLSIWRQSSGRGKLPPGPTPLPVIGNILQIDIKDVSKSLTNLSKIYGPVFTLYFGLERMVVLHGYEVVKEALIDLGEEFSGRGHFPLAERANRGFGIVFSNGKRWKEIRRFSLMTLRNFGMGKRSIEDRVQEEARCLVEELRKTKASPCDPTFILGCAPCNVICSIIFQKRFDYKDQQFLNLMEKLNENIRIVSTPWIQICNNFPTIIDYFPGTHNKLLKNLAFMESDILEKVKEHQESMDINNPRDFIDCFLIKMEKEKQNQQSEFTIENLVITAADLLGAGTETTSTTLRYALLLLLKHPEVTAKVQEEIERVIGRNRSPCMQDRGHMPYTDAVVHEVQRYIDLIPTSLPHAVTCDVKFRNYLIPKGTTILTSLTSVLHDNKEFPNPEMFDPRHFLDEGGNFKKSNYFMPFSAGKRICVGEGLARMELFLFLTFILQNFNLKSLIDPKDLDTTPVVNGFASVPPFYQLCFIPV
- assay-summary: Inhibition of CYP2C19 (unknown origin) by luciferase reporter assay in presence of NADPH regeneration system
pIC50: −log10 of the molar value.
# pIC50 annotations
assay-metric: pIC50

- molecule: "Cc1nc(-c2nnc3n2CCN(C(=O)c2ccc(-c4cccs4)cc2)[C@@H]3C)cs1"
  assayed-target: "UniProt P33261"
  assay-metric: "pIC50"
  qualifier-sign: "="
  value-observed: 4.47
- molecule: "Cc1cccc(-c2nnc3n2CCN(C(=O)c2ccc(F)cc2)C3)n1"
  assayed-target: "UniProt P33261"
  assay-metric: "pIC50"
  qualifier-sign: "="
  value-observed: 4.32
- molecule: "O=C(c1ccc(F)cc1)N1CCn2c(nnc2-c2ccccn2)C1"
  assayed-target: "UniProt P33261"
  assay-metric: "pIC50"
  qualifier-sign: "="
  value-observed: 4.85
- molecule: "Cc1nc(-c2nnc3n2CCN(C(=O)c2ccc(F)cc2)[C@@H]3C)cs1"
  assayed-target: "UniProt P33261"
  assay-metric: "pIC50"
  qualifier-sign: "="
  value-observed: 4.36
- molecule: "N#CC(c1ccccn1)c1ccnc(N2CCN(C(=O)c3ccc(F)cc3)CC2)n1 (stereo not given)"
  assayed-target: "UniProt P33261"
  assay-metric: "pIC50"
  qualifier-sign: ">"
  value-observed: 5.30
- molecule: "O=C(c1ccc(F)cc1)N1CCn2c(nnc2-c2cccc(C(F)(F)F)n2)C1"
  assayed-target: "UniProt P33261"
  assay-metric: "pIC50"
  qualifier-sign: "<"
  value-observed: 4.00
- molecule: "Cc1cncc(-c2nnc3n2CCN(C(=O)c2ccc(-c4cccs4)cc2)[C@@H]3C)n1"
  assayed-target: "UniProt P33261"
  assay-metric: "pIC50"
  qualifier-sign: "="
  value-observed: 4.41
- molecule: "CC(C)c1nc(-c2nnc3n2CCN(C(=O)c2ccc(-c4cccs4)cc2)[C@@H]3C)co1"
  assayed-target: "UniProt P33261"
  assay-metric: "pIC50"
  qualifier-sign: "="
  value-observed: 4.66
- molecule: "Cc1noc(-c2nnc3n2CCN(C(=O)c2ccc(-c4cccs4)cc2)[C@@H]3C)n1"
  assayed-target: "UniProt P33261"
  assay-metric: "pIC50"
  qualifier-sign: "="
  value-observed: 4.27
- molecule: "C[C@@H]1c2nnc(-c3csc(-c4ccccc4)n3)n2CCN1C(=O)c1ccc(F)cc1"
  assayed-target: "UniProt P33261"
  assay-metric: "pIC50"
  qualifier-sign: "="
  value-observed: 4.72

----------
- assay-summary: Solubility of the compound in PBS buffer at pH 7.4 by shake-flask method
- Type: physicochemical
assay-metric: solubility thermodynamic

- entry-smiles: "O=C(c1ccc(F)cc1)N1CCn2c(nnc2-c2ccccn2)C1"
  assay-metric: "solubility thermodynamic"
  value-observed: "≥ 200 µM"
- entry-smiles: "Cc1cccnc1-c1nnc2n1CCN(C(=O)c1ccc(F)cc1)C2"
  assay-metric: "solubility thermodynamic"
  value-observed: "≥ 200 µM"
- entry-smiles: "COc1ccccc1C(=O)N1CCn2c(nnc2-c2ccccn2)C1"
  assay-metric: "solubility thermodynamic"
  value-observed: "≥ 200 µM"
